Cited source: patent US5776944A

# assay summary: Chemical stability under heating
# recorded conditions: thermal stability, 4 weeks, 70° C.
# Description: The anhydride and each of the hydrates was introduced into a glass vial and maintained at 70° C.
experimental readout: remaining at 672 h

stdin: Need remaining at 672 h, item CON=C1CN(c2nc3c(cc2F)c(=O)c(C(=O)O)cn3C2CC2)CC1CN (stereo not shown) [Anhydrate]
stdout: 95%

---

Kindly state MIC for each of the entries shown.
# System: Klebsiella aerogenes 1976E
# assay summary: In vitro antibacterial activity (MIC, agar dilution), Biological Example 1
# Type: cell-based
# recorded conditions: 18 h, Table 25, read-out: Minimum Inhibitory Concentration
Answers are plain numbers, in µg/mL.

Record excerpt, results attached:
INSERT INTO assay_data (compound, obs_value) VALUES
  ('CC(C)CON=C1CN(c2nc3c(cc2F)c(=O)c(C(=O)O)cn3C2CC2)CC1CN (stereo not shown)', 0.5),
  ('CON=C1CN(c2cc3c(cc2F)c(=O)c(C(=O)O)cn3C2CC2)CC1CN (stereo not shown)', 0.13),
  ('CON=C1CN(c2nc3c(cc2F)c(=O)c(C(=O)O)cn3C2CC2)CC1CN (stereo not shown)', 0.13);

Provide MIC for all items below, preserving their order.
1. CC1COc2c(N3CCN(C)CC3)c(F)cc3c(=O)c(C(=O)O)cn1c23 (stereo not shown) [OFLX, ofloxacin, reference compound]
2. CC(C)ON=C1CN(c2nc3c(cc2F)c(=O)c(C(=O)O)cn3C2CC2)CC1CN (stereo not shown)
3. NCC1CN(c2c(F)c(N)c3c(=O)c(C(=O)O)cn(C4CC4)c3c2F)CC1=NOCc1ccccc1 (stereo not shown)
4. CON=C1CN(c2c(F)cc3c(=O)c(C(=O)O)cn(C4CC4)c3c2F)CC1CN (stereo not shown)
5. CON=C1CN(c2c(F)cc3c(=O)c(C(=O)O)cn(C4CC4)c3c2Cl)CC1CN (stereo not shown)
6. NCC1CN(c2c(F)cc3c(=O)c(C(=O)O)cn(C4CC4)c3c2Cl)CC1=NOCc1ccccc1 (stereo not shown)
7. C#CCCON=C1CN(c2nc3c(cc2F)c(=O)c(C(=O)O)cn3C2CC2)CC1CN (stereo not shown)

stdout:
[0.25, 0.25, 0.5, 0.13, 0.5, 0.5, 0.13]

---

# Tested on: Staphylococcus epidermidis 887E
# assay summary: In vitro antibacterial activity (MIC, agar dilution), Biological Example 1
# Format: cell-based
# recorded conditions: 18 h, Table 25, read-out: Minimum Inhibitory Concentration
Kindly state MIC for each of the entries shown.

Record excerpt, results attached:
INSERT INTO measurements (molecule, experimental_readout, obs_value) VALUES
  ('CON=C1CN(c2cc3c(cc2F)c(=O)c(C(=O)O)cn3C2CC2)CC1CN (stereo not drawn)', 'MIC', '0.016 µg/mL'),
  ('NCC1CN(c2nc3c(cc2F)c(=O)c(C(=O)O)cn3C2CC2)CC1=NOCc1ccccc1 (stereo not drawn)', 'MIC', '≤ 0.008 µg/mL'),
  ('CON=C1CN(c2c(F)cc3c(=O)c(C(=O)O)cn(C4CC4)c3c2F)CC1CN (stereo not drawn)', 'MIC', '≤ 0.008 µg/mL'),
  ('CC(C)(C)ON=C1CN(c2nc3c(cc2F)c(=O)c(C(=O)O)cn3C2CC2)CC1CN (stereo not drawn)', 'MIC', '≤ 0.008 µg/mL'),
  ('CON=C1CN(c2c(F)cc3c(=O)c(C(=O)O)cn(C4CC4)c3c2Cl)CC1CN (stereo not drawn)', 'MIC', '0.031 µg/mL');

stdin: Need MIC, item CC(C)ON=C1CN(c2nc3c(cc2F)c(=O)c(C(=O)O)cn3C2CC2)CC1CN (stereo not drawn)
stdout: ≤ 0.008 µg/mL
